Value source: ChEMBL document CHEMBL1649119

Experiment: Clearance in healthy human subjects at 10 mg/kg, iv administered as 30 mins infusion every 24 hrs measured on day 4
Type: ADME, organism-based
Design: dose 10 mg/kg, route intravenous
Conditions: in vivo
measurementLabel: clearance (mL/min/kg)
Respond numerically; units are mL/min/kg and should not be typed.

For reference, reported clearance for CCCCCCCCCC(=O)N[C@@H](Cc1c[nH]c2ccccc12)C(=O)N[C@H](CC(N)=O)C(=O)N[C@@H](CC(=O)O)C(=O)N[C@@H]1C(=O)NCC(=O)N[C@@H](CCCN)C(=O)N[C@@H](CC(=O)O)C(=O)N[C@H](C)C(=O)N[C@@H](CC(=O)O)C(=O)NCC(=O)N[C@H](CO)C(=O)N[C@@H]([C@H](C)CC(=O)O)C(=O)N[C@@H](CC(=O)c2ccccc2N)C(=O)O[C@@H]1C stands at 0.147
